molecular target: GSG2 (human) (UniProt Q8TF76); test: radiometric filter-binding kinase assay, Kinase HotSpot; details: compound 0.5 µM; ATP 10 µM
Sequence (Q8TF76 whole entry, looked up): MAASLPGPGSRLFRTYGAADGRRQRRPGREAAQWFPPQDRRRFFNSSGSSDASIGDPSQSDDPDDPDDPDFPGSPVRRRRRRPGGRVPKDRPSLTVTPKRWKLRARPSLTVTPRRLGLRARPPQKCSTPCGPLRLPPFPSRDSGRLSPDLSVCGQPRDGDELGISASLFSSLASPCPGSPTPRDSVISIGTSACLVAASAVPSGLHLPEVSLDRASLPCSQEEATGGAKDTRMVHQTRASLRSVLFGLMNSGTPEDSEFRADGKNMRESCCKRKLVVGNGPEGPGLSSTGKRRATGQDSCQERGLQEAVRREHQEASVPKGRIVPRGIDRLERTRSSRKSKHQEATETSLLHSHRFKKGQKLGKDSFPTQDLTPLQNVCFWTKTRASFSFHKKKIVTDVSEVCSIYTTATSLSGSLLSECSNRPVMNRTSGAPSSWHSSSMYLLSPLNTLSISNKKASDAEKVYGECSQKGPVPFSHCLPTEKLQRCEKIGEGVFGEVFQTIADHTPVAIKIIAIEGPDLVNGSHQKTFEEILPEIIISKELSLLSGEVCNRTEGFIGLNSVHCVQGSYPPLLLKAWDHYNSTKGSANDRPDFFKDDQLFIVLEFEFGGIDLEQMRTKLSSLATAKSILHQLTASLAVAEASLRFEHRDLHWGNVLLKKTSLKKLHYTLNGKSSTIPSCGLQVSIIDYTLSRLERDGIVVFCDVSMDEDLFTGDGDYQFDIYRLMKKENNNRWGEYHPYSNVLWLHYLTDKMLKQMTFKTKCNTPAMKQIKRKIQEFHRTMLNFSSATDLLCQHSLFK
Listed next: entries and their corresponding residual activity.
Quick note: give the figure in %, leave out the unit.

- molecule: "O=C(NC(NC(=S)Nc1ccc(F)c([N+](=O)[O-])c1)C(Cl)(Cl)Cl)C(c1ccccc1)c1ccccc1 (stereo not drawn)"
  residual activity (%): 109
- molecule: "CS(=O)c1ccc(-c2nc(-c3ccc(F)cc3)c(-c3ccncc3)[nH]2)cc1 (stereo not drawn)"
  residual activity (%): 88.3

Consider the record given below.
Any idea what residual activity was measured for `COc1cc2nccc(Oc3ccc(NC(=S)NC(=O)c4ccccc4C)cc3)c2cc1OC` ?
95.9
